Documented GH Released across a set of compounds
System: GH Release
Experiment: In vivo GH release in pentobarbital anesthetized rats (serum GH by RIA)
Conditions: Table 5; Total Dose 1.0 µg i.v.; anesthetized rats; mean ± SEM, six rats
Where a SMILES comes first, the peptide text is derived from it. [ ]: non-standard residue; d: D form.

>  <compound>
CSC[C@@H](NC(=O)[C@@H](N)Cc1c[nH]cn1)C(=O)N[C@@H](C)C(=O)N[C@@H](Cc1c[nH]c2ccccc12)C(=O)N[C@H](Cc1ccccc1)C(=O)N[C@@H](CCCCN)C(N)=O [His-DCys(SMe)-Ala-Trp-DPhe-Lys-NH₂] (H-H[dC](Me)AW[dF]K-NH2)

>  <target system>
GH Release

>  <GH Released [ng/mL]>
193

$$$$
>  <compound>
C[C@H](NC(=O)[C@@H](N)Cc1c[nH]cn1)C(=O)N[C@H](Cc1c[nH]c2ccccc12)C(=O)N[C@@H](C)C(=O)N[C@@H](Cc1c[nH]c2ccccc12)C(=O)N[C@H](Cc1ccccc1)C(=O)N[C@@H](CCCCN)C(N)=O [His-Ala-DTrp-Ala-Trp-DPhe-Lys-NH₂] (HELM PEPTIDE1{H.A.[dW].A.W.[dF].K.[am]}$$$$V2.0)

>  <target system>
GH Release

>  <GH Released [ng/mL]>
830

$$$$
